Data origin: the supplement of paper PMC9732359

- runDescription: protein stability index of a GFP-peptide fusion (yeast GPS) (PSI 1-4); higher = more stable; sorted into four equal gates, so the index is relative within each strain
- measurementContext: pdr5∆
Note to self: values exactly at 3 are TRUE. So protein stability index at or above 3 is TRUE, below is FALSE.

Hi team, for IILPLDNATLTELVDKA [SSN2] , is the recorded protein stability index at or above 3?
TRUE

Please answer likewise for LVSRGGCGNTQPTIRKD [RPO21]
FALSE

Follow-up item: ANVDQISFLEPINLKFL [YMR129W/POM152]
FALSE

How about this sequence: PSFTDEQWITIESQMRD [PRP8]
FALSE

Entry to check: KSSDSNDSNPSFSFSIP [YLR335W/NUP2]
FALSE
